Provenance of the data: patent US5571816A

# Protocol Notes: Solubility in water of salts (and free bases)
# Type: physicochemical
# Measurement Context: water, 23° C.; read-out: solution that can be prepared in water
Property Label: solubility (µM)
Unit µM implied. Number only.

Which solubility is listed for CC1(C)CN(c2ncc(C(=O)Nc3cccc(C(F)(F)F)c3)c(N)n2)C(=O)N1 [No. 1 (Table 1), reference compound] ?
930

###

# Tested on: serum lipoproteins
# Protocol Notes: Effect on serum lipoproteins of normolipemic male rats in a subchronic experiment
# Type: in vivo
# Measurement Context: Rattus norvegicus, po, 30 mg/kg/day, by stomach tube, 7 administrations, read-out: Serum LDL protein, % change from control at end of treatment
# Method: 3. In vivo, the increased LDL receptor activity in experimental animals is reflected by reduction in the lipoprotein fractions which can be metabolized by the LDL receptor (apoB/E receptor), i.e. a reduction in the LDL and VLDL levels is observed. The following test was carried out: Effect on serum lipoproteins of normolipemic male rats in a subchronic experiment […]
Structures can show the parent of a compound that is named as a salt.
Property Label: change in vivo at 30 mg/kg (%)
Unit % implied. Number only.

Consider the reported change in vivo at 30 mg/kg for these compounds:
Compound: CCCN(C(=O)c1cnc(N2CC(C)(C)NC2=O)nc1N)c1cccc(C(F)(F)F)c1
Value Units: %
Quantitative Readout: 44
--
Compound: CC(C)N(C(=O)c1cnc(N2CC(C)(C)NC2=O)nc1N)c1cccc(C(F)(F)F)c1 [Example 4, hydrochloride]
Value Units: %
Quantitative Readout: -53
--
Compound: CC(C)CN(C(=O)c1cnc(N2CC(C)(C)NC2=O)nc1N)c1cccc(C(F)(F)F)c1
Value Units: %
Quantitative Readout: -5

Which change in vivo at 30 mg/kg is listed for `CC(C)N(C(=O)c1cnc(N2CC(C)(C)NC2=O)nc1N)c1ccc(F)c(C(F)(F)F)c1` ?
-35

###

Recorded measurements of 1 part by mass dissolves in ... parts of H2O, one per entry
# Protocol Notes: Solubility in water of salts (and free bases)
# Assay type: physicochemical
# Measurement Context: Table 1, N-H analogs; temp. by No. [°C]: 1 25.0; 2 23.0; 3 26.2; 4 25.1; 5 25.2; 6 24.1; 7 24.5; 8 24.2; 9 24.2; 10 25.7; 11 25.8

Compound: CC1NC(=O)N(c2ncc(C(=O)Nc3cccc(C(F)(F)F)c3)c(N)n2)C1C (stereo not drawn) [No. 11 (Table 1), reference compound]
Result: 277 parts of H2 O

Which 1 part by mass dissolves in ... parts of H2O is listed for COc1ccc(C(F)(F)F)cc1NC(=O)c1cnc(N2CC(C)(C)NC2=O)nc1N [No. 6 (Table 1), reference compound] ?
75 parts of H2 O

And then CC1(C)CN(c2ncc(C(=O)Nc3cc(C(F)(F)F)ccc3Cl)c(N)n2)C(=O)N1 [No. 4 (Table 1), reference compound] , what is it?
217 parts of H2 O
